Measured inhibition accompanies every entry in the list below.
Assay: endothelial E-selectin expression blockers – imaging, HUVEC, immunofluorescence, MLSMR starter and 10KST1 sets, primary screen (AID 487);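 on inhibition: signal is fraction of cell area covered by stained E-selectin grains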
Details: HUVEC TNFalpha-induced E-selectin immunofluorescence imaging, at 2 µM; stronger effect = higher value
The source made the active and inactive calls.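 How the source made its calls: active means visually confirmed hit in the image check and inhibition above 20%; inconclusive means visually confirmed hit but inhibition not above 20%; inactive means no visual hit in the image check.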

Answered cases to consult:
compound	result
Cc1nc2cc(N3CCCCC3)c(NC(=O)c3cccnc3)cc2c(=O)n1Cc1ccccc1	-2% (inactive)
CCOC(=O)c1c(C)[nH]c(C)c1C(=O)COc1ccc(NC(=O)c2ccco2)cc1	-423% (inactive)
O=C(c1ccco1)N1CCN(C(=O)c2cc3c(s2)-c2ccccc2OC3)CC1	4.9% (inactive)

So, CCOC(=O)c1ccc(NCc2nc3ccccc3[nH]2)cc1 ? Its inhibition was -46% (inactive)

So, N#CC1=C(N)Oc2cc(O)ccc2C1C1CCCCC1 (stereo unspecified) ? Its inhibition was -33.8% (inactive)

So, CC(=O)c1ccc(-c2nc3ccccc3n2C)o1 ? Its inhibition was -11.8% (inactive)

----------
Measured nuclei count accompanies every entry in the list below.
Assay: endothelial E-selectin expression blockers – imaging, HUVEC, immunofluorescence, MLSMR starter and 10KST1 sets, primary screen (AID 487);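 on nuclei count: 100% = median nuclei count of all wells on the same plate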
Settings: HUVEC TNFalpha-induced E-selectin immunofluorescence imaging, at 2 µM; measured here: cell number, toxicity
Your answer is read as %, so omit the unit and give the number.

Answered cases to consult:
compound	u	nuclei count
COc1cc(C2N3CC4(C)CN2CC(C)(C3)C4)ccc1O (stereo unspecified)	%	100
O=C(Nc1ccc2c(c1)OCO2)OCc1ccccc1	%	101

So, O=S(=O)(NCC1CCCO1)c1cc(Cl)ccc1Br (stereo unspecified) ? Its nuclei count was 117

So, O=C(CN1C(=O)C2C3C=CC(C3)C2C1=O)NCc1ccc2c(c1)OCO2 (stereo unspecified) ? Its nuclei count was 104

So, CCOC(=O)N1CCN(c2cc(=O)n(-c3ccccc3Cl)c(=O)[nH]2)CC1 ? Its nuclei count was 90.2

So, CCOc1ccc(-c2nc(C#N)c(N3CCCCCC3)o2)cc1 ? Its nuclei count was 114

----------
Measured nuclei count accompanies every entry in the list below.
Test: reduction of polyQ htt aggregates in cells – imaging, exon1htt(103Q)mCFP cells, high-content imaging, primary screen (AID 483);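 further: compound exposure lasted 3 days before fixation; percent of the per-plate median nuclei count of sample wells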
Settings: exon1htt(103Q)mCFP cell line, aggregate imaging, at 2 µM; measured here: cell count, toxicity
Your answer is read as %, so omit the unit and give the number.

Answered cases to consult:
CS(=O)(=O)N(CC(=O)N1CCc2ccccc2C1)c1ccc2c(c1)OCO2 97.2
CC(=O)Nc1ccc(S(=O)(=O)N2CCC(c3nc4ccccc4[nH]3)CC2)cc1 93.3

So, COc1ccc(-c2cc3ccc(OCc4nn[nH]n4)cc3oc2=O)cc1 ? Its nuclei count was 81.6

So, O=C(C(c1ccccc1)c1ccccc1)N1CCN(Cc2ccccn2)CC1 ? Its nuclei count was 98.4

So, Cc1cccc(-c2nnc(SCC#N)n2-c2cccc(Cl)c2)c1 ? Its nuclei count was 118

So, O=S(=O)(NC1CCCC1)c1ccc(S(=O)(=O)N2CCc3ccccc32)cc1 ? Its nuclei count was 102

----------
Experiment: blockers of RIG-like receptor reporter activation – cell-based, Sendai virus stimulus, luciferase, 10K MLSCN set, TLR/RLR signaling modifier project, primary screen (AID 602276);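 further: firefly luciferase from ISG56 promoter only with Renilla not read in this screen; 0% = Sendai virus plus DMSO and 100% = medium plus DMSO without virus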
Conditions: HEK293 RL24 IRF3 luciferase reporter, at 10 µM, stronger effect = higher value
Calls of active or inactive are those of the source.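 How the source made its calls: active means inhibition at or above 50% at 10 µM; inactive means inhibition below 50%.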
property: inhibition

Answered cases to consult:
compound	inhibition
COC(=O)Cn1c(=O)c2c(nc3n2CC(C)CN3c2ccc(C)c(C)c2)n(C)c1=O (centres undefined)	13.3% (inactive)
COc1ccccc1Cn1c(-c2ccco2)nc2nc3ccccc3nc21	1.34% (inactive)
CCCCn1nnc(NC(=O)Cc2ccc(Cl)cc2)n1	1.51% (inactive)
C/C=C/CSc1nc2c(c(=O)[nH]c(=O)n2C)n1Cc1ccc(C)cc1	-3.97% (inactive)
CCc1nnc(NC(=O)CN2CCN(c3ccccc3OC)CC2)s1	7.27% (inactive)

So, COc1nnc(-c2ccc(C)c(S(=O)(=O)NCCO)c2)c2ccccc12 ? Its inhibition was 1.8% (inactive)

So, O=C(Nc1ncc(Cc2ccccc2)s1)C1CCCO1 (centres undefined) ? Its inhibition was -58.5% (inactive)

So, FC(F)(F)c1cc(-c2ccccc2)nc(N2CCCCC2)n1 ? Its inhibition was 12.9% (inactive)

So, COc1ccccc1OCCOc1ccccc1/C=N/n1cnnc1 ? Its inhibition was -3.21% (inactive)

So, CC(Oc1ccc(Cl)cc1Cl)C(=O)Nc1ncccn1 (centres undefined) ? Its inhibition was -4.61% (inactive)

So, COc1ccc(C2C(C(=O)N3CCC(C)CC3)c3ccccc3C(=O)N2C)cc1 (centres undefined) ? Its inhibition was -9.25% (inactive)

So, CCOC(=O)N(C)c1ccc(C(O)(C(F)(F)F)C(F)(F)F)cc1 ? Its inhibition was -1.35% (inactive)

So, CC(=O)c1ccc(-c2nc3ccccc3n2C)o1 ? Its inhibition was -22.8% (inactive)

So, COc1ccccc1N1CCN(C(=O)N2CCOCC2)CC1 ? Its inhibition was 19% (inactive)

So, O=C1c2ccccc2C(Nc2ccc(F)c(Cl)c2)N1Cc1ccco1 (centres undefined) ? Its inhibition was 5.4% (inactive)

So, Cc1nc2ccc(S(=O)(=O)NC(C(=O)NCc3cccs3)C(C)C)cc2s1 (centres undefined) ? Its inhibition was -5.51% (inactive)

So, COC(=O)c1ccccc1NC1c2ccccc2C(=O)N1c1cccnc1 (centres undefined) ? Its inhibition was 5.35% (inactive)

So, COc1ccc(-n2ccnc2SCC(=O)NCc2ccc3c(c2)OCO3)cc1 ? Its inhibition was 11.9% (inactive)

So, COc1nc(C)ccc1-c1noc(-c2ccncc2)n1 ? Its inhibition was -26% (inactive)

So, O=C(COC(=O)CCC1CCCC1)Nc1ccc(Cl)cn1 ? Its inhibition was -6.45% (inactive)

So, C=CCSC1=C(C#N)C(c2ccccc2Cl)CC(=O)N1 (centres undefined) ? Its inhibition was 25.7% (inactive)

So, CSCCC(C(=O)Nc1ccc2c(c1)OCO2)N1C(=O)c2ccccc2C1=O (centres undefined) ? Its inhibition was 9.29% (inactive)

So, Cc1cccc(-c2cc3nc(C)cc(NCCCN(C)C)n3n2)c1 ? Its inhibition was 21% (inactive)

So, CCCCOc1ccc(C(=O)N2CCC(C)CC2)cc1 ? Its inhibition was -4.61% (inactive)

----------
Target: Alpha-2C adrenergic receptor (Homo sapiens)
Assay: compounds altering alpha2C-coupled GIRK flux – cell-based, HEK293 alpha2C/GIRK1/2, thallium flux, primary screen (AID 624);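 further: slope of fluorescence ratio to pre-addition baseline per second over 15 to 24 s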
Settings: thallium flux BTC fluorescence, at 10 µM, actives lie on both sides
Everything with slope lower than 0.006 is 0 (no); everything else, including exactly 0.006, is 1 (yes).

See these solved cases before continuing.
compound	answer-label
C=CCNC(=O)c1cc(-c2ccccc2O)on1	1 (yes)
Cc1ccc(NC(=O)c2ccco2)c(NC(=O)c2cccs2)c1	0 (no)
Cc1ccc(C2C(C(=O)c3sc(C)nc3C)=C(O)C(=O)N2CCN(C)C)o1 (stereo not given)	0 (no)

Below: the item to evaluate.
Would you say CCOc1ccc(N(CC(=O)Nc2ccc(C)c(C)c2)S(=O)(=O)c2c(C)noc2C)cc1 shows slope at minimum 0.006? 1 (yes)

----------
Target: Alpha-2C adrenergic receptor (Homo sapiens)
Experiment: compounds altering alpha2C-coupled GIRK flux – cell-based, HEK293 alpha2C/GIRK1/2, thallium flux, primary screen (AID 624);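 further: slope of fluorescence ratio to pre-addition baseline per second over 15 to 24 s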
Conditions: thallium flux BTC fluorescence, at 10 µM, actives lie on both sides
Activity calls are given as the source filed them.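 The calls were made as follows: active = fluorescence slope after compound addition differing from the mean of all screened samples at 99.7% confidence, in either direction; inactive = the rest.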
property: slope

Answered cases to consult:
compound	result
CC1CCc2nn(CC(=O)Nc3ccc(F)cc3F)cc2C1 (stereo not drawn)	0.00669 (inactive)
Cc1cc(-c2ccccc2)c(C#N)c(N)n1	0.00466 (inactive)
C=CCn1c(Br)nc2c1c(=O)[nH]c(=O)n2C	0.00545 (inactive)
CCOC(=O)CSc1nc2cccnc2n1-c1ccc(F)cc1	0.0064 (inactive)

So, COc1ccccc1-c1nc2n(n1)C(c1ccc(Cl)cc1)C(C(N)=O)=C(C)N2 (stereo not drawn) ? Its slope was 0.00608 (inactive)

So, CC(C)C(c1nnnn1CC1CCCO1)N1CCN(Cc2ccc3c(c2)OCO3)CC1 (stereo not drawn) ? Its slope was 0.00548 (inactive)

So, O=C(NCN1CCCCC1)c1cnccn1 ? Its slope was 0.00561 (inactive)

So, Cc1nnc(SCCn2c(Br)nc3c2c(=O)n(C)c(=O)n3C)s1 ? Its slope was 0.00518 (inactive)

So, O=C(NC1CCCC1)C(c1cccs1)N(Cc1ccco1)C(=O)Cn1nnc(-c2cccs2)n1 (stereo not drawn) ? Its slope was 0.00489 (inactive)

----------
Assay: TLR3 IRF3 reporter activation blockers – cell-based, poly I:C stimulus, luciferase, 10K MLSCN set, primary screen (AID 602277)
Details: HEK293-TLR3 RL24 IRF3 luciferase reporter, at 10 µM, stronger effect = higher value
property: inhibition (%)
Your answer is read as %, so omit the unit and give the number.

So, O=C(c1ccc(Br)o1)N(c1ccc(Br)cc1)C1C=CS(=O)(=O)C1 (stereo not given) ? Its inhibition was -3.46
